Hi there, I'd appreciate the recorded logP for every entry that follows.
Numbers only.

Answered cases to consult:
CC1(C)SC2C(NC(=O)c3c(-c4c(F)cccc4Cl)noc3CO)C(=O)N2C1C(=O)O (stereo unspecified) = 2.23
Cc1n[nH]c(C(=O)NC2CCCC2)c1[N+](=O)[O-] = 1.24
CC1CSC2C(NC(=O)C(O)c3ccccc3)C(=O)N2C1C(=O)O (stereo unspecified) = 0.47
CC1OC(OC2C(C)OC(OC3C(C)OC(OC4CCC5(C)C(CCC6C5CCC5(C)C(C7=CC(=O)OC7)C(OC=O)CC65OC=O)C4)CC3OC=O)CC2OC=O)CC(O)C1OC=O (stereo unspecified) = 3.16
CCN(CC)C(=O)N(C)SN(C)C(=O)ON=C(C)SC = 3.2
O=C(NCCCO)C(F)(F)Cn1cnc([N+](=O)[O-])n1 = -0.63
C#CCOc1c(Cl)cc(NC=NOCC#N)cc1Cl = 3
CC(C)OC(=O)c1cnc2n(c1=O)C(C)CCC2 (stereo unspecified) = 0.99

For every item in the list below, what is its measured logP?
1. CNc1nccn2cc(-c3ccc(S(C)=O)cc3OC)nc12 (stereo unspecified)
2. CC(=O)OC(C(=O)NC1C(=O)N2C(C(=O)O)=C(C)CSC12)c1ccccc1 (stereo unspecified)
3. O=C1CC(Sc2nc3ccccc3s2)N1 (stereo unspecified)

A:
1. 1.88
2. 1.02
3. 2.3

---

RECORDED METRIC: logP
Give bare numbers.

Answered cases to consult:
CCOC(=S)NCCn1c([N+](=O)[O-])cnc1C = 1.5
COc1ccc(COC(C(=O)O)c2ccccc2)cc1Cl (stereo unspecified) = 2.45
O=C(O)c1cc(Oc2cc(C(F)(F)F)ccc2Cl)ccc1[N+](=O)[O-] = 3.7
CCCOC(=O)C(C(=O)OC)=C1SC=CS1 = 2.72
Cn1c([N+](=O)[O-])cnc1C(N)=O = 0.29

Shift focus to the following entry.
Q: Provide only the value of recorded logP for CCCSP(=O)(OCC)Oc1cnn(-c2ccc(Cl)cc2)c1 (stereo unspecified)
A: 3.77

---

Where a SMILES comes first, the peptide text is derived from it.
RECORDED METRIC: logP
Numbers only.

For every item in the list below, what is its measured logP?
1. CCCCCOc1ccc2ccc(=O)oc2c1
2. COc1ncnc2c1ncn2C1OC(CO)CC1F (stereo not drawn)
3. CCC(=O)C1(c2cccc(OC(=O)OC(C)C)c2)CCN(C)CC1
4. NC(=Nc1ccccc1)NN=Cc1ccc2ccccc2n1
5. O=C(Cn1c(=O)sc2ccc(Cl)cc21)N1CC[N+]([O-])(CCO)CC1
6. Clc1cc2c(c(Cl)c1Cl)Oc1ccc(Cl)c(Cl)c1O2

A:
1. 3.92
2. 0.25
3. 1.72
4. 0.99
5. 0.05
6. 6.74

For every item in the list below, what is its measured logP?
1. O=[N+]([O-])C=C1NCCN1c1ccc(Cl)nc1
2. Oc1ccc(O)c2ncccc12
3. CCC(=O)C(CS(=O)(=O)c1ccc(C)cc1)c1ccccc1 (stereo not drawn)
4. CCC1COC(Cn2cncn2)(c2ccc([N+](=O)[O-])cc2)O1 (stereo not drawn)

A:
1. -0.23
2. 1.42
3. 2.45
4. 1.52

For every item in the list below, what is its measured logP?
1. CC(C)NC(=O)C1(O)C(C)CC2C3CCC4=CC(=O)C=CC4(C)C3(F)C(O)CC21C (stereo not drawn)
2. CCC1CC2C3CCC4=CC(=O)CCC4C3CCC2(C)C1C(=O)CF (stereo not drawn)
3. Cc1cccc(C)c1NC(=O)c1cccc(CN2CCCCC2)c1

A:
[2.43, 4.66, 3.47]

For every item in the list below, what is its measured logP?
1. CCOc1ccc(C2(C(=O)OC)CC2(Cl)Cl)cc1 (stereo not drawn)
2. Cc1ccc(NN=C(C#N)C#N)c([N+](=O)[O-])c1
3. CC(=O)N(CC(O)CO)c1c(I)c(C(=O)NCCO)c(I)c(C(=O)NCCO)c1I (stereo not drawn)
4. Cc1[nH]c2cccc3c2c1CC1NCC(C(=O)NC2(C(C)C)OC4(O)C5CCCN5C(=O)C(C(C)C)N4C2=O)C=C31 (stereo not drawn)

A:
1: 4.1; 2: 2.5; 3: -1.86; 4: 3.15

For every item in the list below, what is its measured logP?
1. CN(C)C=Nc1ccn(C2OC(CO)C(O)C2O)c(=O)n1 (stereo not drawn)
2. Cc1ccccc1CO[C@H]1C[C@]2(C(C)C)CC[C@@]1(C)O2 (single isomer, unassigned)
3. CC1=C(c2ccccc2)CCN(C)C1
4. CON=C(C(=O)NC1C(=O)N2C(C(=O)OCOC(=O)C(C)(C)C)=CCSC12)c1csc(N)n1 (stereo not drawn)
5. Cc1c(Cl)cccc1Cl
6. Cc1ccc(OCc2ccccc2CCCN2CCC(O)CC2)cc1
7. Cc1ccc(Cl)c(C)c1
8. O=C1CC(Sc2ccncc2)N1 (stereo not drawn)

A:
1: -1.68; 2: 4.62; 3: 3.18; 4: 1.76; 5: 3.99; 6: 3.5; 7: 3.83; 8: 0.61

For every item in the list below, what is its measured logP?
1. CC1CC2C3CCC4=CC(=O)C=CC4(C)C3(F)C(O)CC2(C)C1(O)C(=O)NCc1ccc([N+](=O)[O-])cc1 (stereo not drawn)
2. O=C(c1ccc(F)cc1)C1CCN(CCn2c(=O)[nH]c3ccccc3c2=O)CC1
3. O=C(O)CCCCCNCCc1ccccc1
4. COc1cc(OCc2ccccc2CCCN2CCC(O)CC2)cc(OC)c1OC
5. N#CC(CCc1ccc(Cl)cc1)(Cn1cncn1)c1ccccc1 (stereo not drawn)
6. CC1CCCC(C)C1NC(=O)N(CCCl)N=O (stereo not drawn)
7. CN(C)Cc1ccc(-c2cccc(Nc3[nH]ccc3[N+](=O)[O-])c2)o1
8. CCN(CC)N=Nc1ccccc1C(N)=O

A:
1: 3.44; 2: 3.29; 3: -1.3; 4: 2.6; 5: 3.23; 6: 2.57; 7: 3.1; 8: 2.96

For every item in the list below, what is its measured logP?
1. CCc1ncc([N+](=O)[O-])n1C
2. CCOc1ccc(OCc2ccccc2CCCN2CCC(O)CC2)cc1
3. O=C(NC(CO)C(O)c1ccc(-c2ccccn2)cc1)C(F)(F)F (stereo not drawn)
4. C=Cc1ncc([N+](=O)[O-])n1C
5. CC(=O)NC(CC(C)C)C(=O)NC(Cc1ccccc1)C(=O)NC(CCCNC(=N)N)C(N)=O (stereo not drawn) (Ac-Leu-Phe-Arg-NH2; configuration not given here)
6. CC(C)CCCNC(=O)C1(O)C(C)CC2C3CCC4=CC(=O)C=CC4(C)C3(F)C(O)CC21C (stereo not drawn)

A:
[0.68, 3.42, 1.31, 0.62, -0.12, 3.93]

For every item in the list below, what is its measured logP?
1. CN1C(=O)NC(=O)C(=O)C1=O
2. Cc1nc(Cl)c([N+](=O)[O-])n1C
3. Cc1nccc2c1[nH]c1ccccc12
4. CCC(=O)C1(c2cccc(O)c2)CCN(C)CC1
5. CNC(=O)OCc1ccc(Cl)cc1
6. Cc1cc(O)c(C)c(C)c1O
7. O=c1n[n+]([O-])ccn1Cc1ccccc1

A:
1. -1.01
2. 0.87
3. 3.1
4. 1.02
5. 2.42
6. 1.69
7. 0.19

For every item in the list below, what is its measured logP?
1. CCC1(CCC(C)C)C(=O)NC(=O)N(C)C1=O (stereo not drawn)
2. CNC(=NC#N)NCCCCc1ncccc1OC

A:
2.45
1.5
